Data provenance: patent US20220340657A1

Recorded IC50 for the following binders
Target: T1, bio-LAG3-mFc (human, UniProt P18627 23-450, biotin-labelled)
T1 construct: also called hLAG-3
T1 sequence (looked up): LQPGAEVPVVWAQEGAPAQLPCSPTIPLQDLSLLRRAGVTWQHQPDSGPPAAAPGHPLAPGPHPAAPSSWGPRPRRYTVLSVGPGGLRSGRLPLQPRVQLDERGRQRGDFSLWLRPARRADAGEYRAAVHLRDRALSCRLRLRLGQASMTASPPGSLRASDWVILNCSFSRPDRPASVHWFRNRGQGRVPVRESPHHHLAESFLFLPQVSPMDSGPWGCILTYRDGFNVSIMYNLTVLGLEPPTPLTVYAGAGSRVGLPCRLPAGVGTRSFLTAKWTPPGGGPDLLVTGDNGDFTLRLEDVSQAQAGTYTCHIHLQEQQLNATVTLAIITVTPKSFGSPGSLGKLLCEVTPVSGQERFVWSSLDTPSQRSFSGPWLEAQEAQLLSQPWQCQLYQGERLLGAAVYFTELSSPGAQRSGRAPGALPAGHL
Test: blocking ELISA, LAG-3 on Daudi cells
Output spec: scalar in nM, unitless text.

{"columns": ["BINDER", "IC50 (nM)"],
 "data": [
  ["chimeric antibody mab23c (antibody, human IgG4 S228P, kappa, V domains shown, hIgG4) VH: QVQLQQSGAELVRPGASVTLSCKASGYTFTDYEMHWVKQTPVHGLEWIGGIDPETEGIAYNQKFRGKAILTADKSSITAYMELRSLTSEDSAVYYCTNSNYYGGREAWFAYWGQGTLVTVSG VL: DIQMIQSPSSLSASLGERVSLTCRASQDIGSSLNWLQQEPDGTIKRLIYATSSLDSGVPKRFSGSRSGSDYSLTISSLESEDFVDYYCLQYVTSPLTFGAGTKLELKR", 1.55]
]}

We now examine a further binder.
Form field IC50, entry humanized anti-human LAG-3 antibody Ab2317 (antibody, human IgG4 S228P, kappa, V domains shown, LG2317 / LG2343, human kappa / hIgG4) VH: QVQLVQSGAEVKKPGASVKVSCKASGYTFTDYEMHWVKQAPGQGLEWIGGIDPETEGIAYNQKFRGRATLTADKSTSTAYMELRSLRSDDTAVYYCTNSNYYGGREAWFAYWGQGTLVTVSS VL: DIQMTQSPSSLSASVGDRVTITCRASQDIGSSLNWYQQKPGKAPKRLIYATSSLDSGVPSRFSGSRSGSDFTLTISSLQPEDFATYYCLQYVTSPLTFGGGTKVEIKR : 1.64
